The following compounds are listed with their measured pEC50 values.
Tested on: phospho-ERK in melanoma derived WM-266-4 cells
Experiment: Mechanistic cellular assay for Raf kinase activity (phospho-ERK, Bio-Plex)
Format: cell-based
Conditions: Homo sapiens, treated 1-2 hr at 37° C., serum free medium, read-out: pERK EC50
pEC50: −log10 of the molar value.

Sample answers from the record:
{"COMPOUND": "COCCOc1cc(C(F)(F)F)ccc1Nc1ncc(C(C)NC(=O)c2cc3c(cn2)ncn3C)s1 (centres unmarked) [Example 282]", "MEASUREMENT_LABEL": "pEC50", "TEST_VALUE": "6.00 to 7.00"}
{"COMPOUND": "CC(NC(=O)c1cc2c(cn1)ncn2C(CO)CO)c1cnc(Nc2ccc(C(F)(F)F)cc2)s1 (centres unmarked) [Example 32]", "MEASUREMENT_LABEL": "pEC50", "TEST_VALUE": "5.00 to 6.00"}
{"COMPOUND": "CC(NC(=O)c1ccc2nccnc2c1)c1cnc(Nc2ccc(C(F)(F)F)cc2)s1 (centres unmarked) [Example 73]", "MEASUREMENT_LABEL": "pEC50", "TEST_VALUE": "6.00 to 7.00"}
{"COMPOUND": "C[C@@H](NC(=O)c1cccc(N)n1)c1ncc(C(=O)Nc2cc(C(F)(F)F)c(Cl)cn2)s1 [Example 92]", "MEASUREMENT_LABEL": "pEC50", "TEST_VALUE": "5.00 to 6.00"}
{"COMPOUND": "C[C@@H](NC(=O)c1cnn(C)c1CN1CCC(F)(F)C1)c1ncc(C(=O)Nc2cc(C(F)(F)F)c(Cl)cn2)s1 [Example 130]", "MEASUREMENT_LABEL": "pEC50", "TEST_VALUE": "6.00 to 7.00"}

# pEC50 lookup, item CC(NC(=O)c1ccc2ncccc2c1)c1cnc(Nc2ccc(C(F)(F)F)cc2)s1 (centres unmarked) [Example 72]
5.00 to 6.00

Could you do the same for CC(C)n1cc(C(=O)N[C@H](C)c2ncc(C(=O)Nc3cc(C(F)(F)F)c(Cl)cn3)s2)cn1 [Example 134] , please?
6.00 to 7.00

Same read-out for CC(NC(=O)c1cc2c(cn1)ncn2C)c1cnc(Nc2cc(Cl)ncn2)s1 (centres unmarked) [Example 260] ?
5.00 to 6.00

----------
Biological target: V599E Raf (Homo sapiens, UniProt P15056, V600E)
Sequence (P15056 whole entry V600E): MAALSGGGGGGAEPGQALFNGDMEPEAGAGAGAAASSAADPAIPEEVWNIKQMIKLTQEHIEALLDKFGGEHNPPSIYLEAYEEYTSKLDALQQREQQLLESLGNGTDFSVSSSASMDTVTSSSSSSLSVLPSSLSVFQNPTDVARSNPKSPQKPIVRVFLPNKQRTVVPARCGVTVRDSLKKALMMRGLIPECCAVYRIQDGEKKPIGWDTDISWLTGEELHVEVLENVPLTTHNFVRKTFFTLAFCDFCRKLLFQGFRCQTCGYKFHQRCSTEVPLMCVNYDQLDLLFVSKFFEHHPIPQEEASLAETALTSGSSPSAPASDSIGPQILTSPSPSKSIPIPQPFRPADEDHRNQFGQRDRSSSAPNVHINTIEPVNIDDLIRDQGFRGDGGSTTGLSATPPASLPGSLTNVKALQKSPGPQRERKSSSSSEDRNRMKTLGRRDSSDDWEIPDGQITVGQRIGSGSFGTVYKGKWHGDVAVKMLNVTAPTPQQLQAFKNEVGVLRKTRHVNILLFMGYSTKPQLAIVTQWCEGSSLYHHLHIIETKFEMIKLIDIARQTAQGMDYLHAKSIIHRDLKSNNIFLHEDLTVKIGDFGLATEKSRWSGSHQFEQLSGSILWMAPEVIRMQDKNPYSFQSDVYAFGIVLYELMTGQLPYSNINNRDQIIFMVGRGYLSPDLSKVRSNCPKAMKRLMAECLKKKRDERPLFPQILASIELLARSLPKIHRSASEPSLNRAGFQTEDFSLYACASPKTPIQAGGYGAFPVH
Assay: Biochemical FRET assay, mutant Raf (phosphorylation of MEK)
Conditions: 0.125 nM V599E Raf, 100 nM biotin-MEK, 25 μM ATP, read-out: Raf (mut) inhibition
pIC50: −log10 of the molar value.
Listing of entries alongside the reported pIC50.

{"COMPOUND": "Cc1nn(C)c(C)c1C(=O)N[C@H](C)c1ncc(C(=O)Nc2cc(C(F)(F)F)c(Cl)cn2)s1", "TEST_VALUE": "≥ 7.00"}
{"COMPOUND": "CCn1cnc2cnc(C(=O)NC(C)c3cnc(Nc4ccc(C(F)(F)F)nc4)s3)cc21 (stereo not shown)", "TEST_VALUE": "≥ 7.00"}
{"COMPOUND": "Cc1cc2nc(NC(=O)c3cc([C@@H](C)NC(=O)c4cnn5ccccc45)no3)[nH]c2cc1C", "TEST_VALUE": "6.00 to 7.00"}

What does the data say about its pIC50? Entry: CC(NC(=O)c1cc2ncn(C)c2cn1)c1cnc(Nc2ccc(C(F)(F)F)cc2)s1 (stereo not shown)
≥ 7.00

Again, but for CC(NC(=O)c1cc2c(cn1)ncn2C)c1cnc(Nc2ccc(C(F)(F)F)cc2)s1 (stereo not shown)
≥ 7.00

Now consider CC(NC(=O)c1cnn(C)c1)c1cnc(Nc2ccc(C(F)(F)F)cc2)s1 (stereo not shown) and answer again.
≥ 7.00

Would you mind doing C[C@@H](NC(=O)c1cnn2ccccc12)c1cc(C(=O)NC2CC(C)(C)NC(C)(C)C2)on1 as well?
5.00 to 6.00

Also need Cc1ccc(NC(=O)c2cc(C(C)(C)NC(=O)c3cnn4ccccc34)on2)cc1C(F)(F)F , thanks.
6.00 to 7.00

----------
Recorded measurements of pIC50, one per entry
Target: V599E Raf (Homo sapiens, UniProt P15056, V600E)
Assay: Biochemical FRET assay, mutant Raf (phosphorylation of MEK)
Settings: 0.125 nM V599E Raf, 100 nM biotin-MEK, 25 μM ATP, read-out: Raf (mut) inhibition
Description: (1) Biochemical FRET Assay […] Inhibitors were diluted 4-fold in 100% DMSO and added to a final concentration of 10 μM to 40 μM to a solution containing 100 nM biotin-MEK, 0.125 nM V599E Raf in 50 mM HEPES, pH 7.4, 60 mM NaCl, 3 mM MgCl2, 2 mM DTT, 0.25 mM MnCl2, 0.01% BSA, and 0.01% Tween-20 and incubated for 20 minutes at room temperature. The kinase reaction was started by the addition of 25 μM ATP to a final volume of 45 μl and allowed to progress for 60 minutes. […]
pIC50: −log10 of the molar value.

Query pIC50 on V599E Raf (Homo sapiens, UniProt P15056, V600E) for CC(C)N1CC(n2cnc3cnc(C(=O)N[C@H](C)c4cnc(Nc5ccc(C(F)(F)F)cc5)s4)cc32)C1 [Example 183]
≥ 7.00

----------
Test system: phospho-ERK in melanoma derived WM-266-4 cells
Assay: Mechanistic cellular assay for Raf kinase activity (phospho-ERK, Bio-Plex)
Type: cell-based
Conditions: Homo sapiens, treated 1-2 hr at 37° C., serum free medium, read-out: pERK EC50
MEASUREMENT_LABEL: EC50

Past entries and their recorded results:
{"COMPOUND": "C[C@@H](NC(=O)c1csc(-c2ccncc2)n1)c1ncc(C(=O)Nc2cc(C(F)(F)F)c(Cl)cn2)s1", "MEASUREMENT_TARGET": "phospho-ERK in melanoma derived WM-266-4 cells", "EC50": "1000 to 10000 nM"}
{"COMPOUND": "C[C@@H](NC(=O)c1cnc2ncccn12)c1ncc(C(=O)Nc2cc(C(F)(F)F)c(Cl)cn2)s1", "MEASUREMENT_TARGET": "phospho-ERK in melanoma derived WM-266-4 cells", "EC50": "100 to 1000 nM"}
{"COMPOUND": "C[C@@H](NC(=O)c1cc2c(cn1)ncn2C1CN(C)C1)c1cnc(Nc2ccc(C(F)(F)F)cc2)s1", "MEASUREMENT_TARGET": "phospho-ERK in melanoma derived WM-266-4 cells", "EC50": "100 to 1000 nM"}

// lookup EC50 for C[C@@H](NC(=O)c1ccc2ncsc2c1)c1ncc(C(=O)Nc2cc(C(F)(F)F)c(Cl)cn2)s1
≤ 100 nM

Then this compound: CC(NC(=O)c1cc2c(cn1)ncn2C)c1cnc(Nc2cccc(C(F)(F)F)n2)s1 (stereo not shown)
100 to 1000 nM

Now consider C[C@@H](NC(=O)c1cnc(N2CCN(C)CC2)s1)c1ncc(C(=O)Nc2cc(C(F)(F)F)c(Cl)cn2)s1 and answer again.
1000 to 10000 nM

Now try CC(NC(=O)c1cnn2cc(-c3cncc(F)c3)ccc12)c1ncc(C(=O)Nc2cc(C(F)(F)F)c(Cl)cn2)s1 (stereo not shown) .
≤ 100 nM

----------
Items are presented alongside their recorded IC50.
Target: V599E Raf (Homo sapiens, UniProt P15056, V600E)
Test: Biochemical FRET assay, mutant Raf (phosphorylation of MEK)
Conditions: 0.125 nM V599E Raf, 100 nM biotin-MEK, 25 μM ATP, read-out: Raf (mut) inhibition

Recorded results for 3 compounds are shown here.
{"COMPOUND": "C[C@@H](NC(=O)c1cnn2ccccc12)c1cc(C(=O)Nc2nc3ccc(F)cc3s2)on1 [Example 210]", "TEST_VALUE": "0.1 to 1 µM"}
{"COMPOUND": "CC(NC(=O)c1cc2c(cn1)ncn2C(CO)CO)c1cnc(Nc2ccc(C(F)(F)F)cc2)s1 (stereo not shown) [Example 32]", "TEST_VALUE": "≤ 0.1 µM"}
{"COMPOUND": "C[C@@H](NC(=O)c1cnn2cc(-c3cccnc3)ccc12)c1cc(C(=O)Nc2cccc(OC(F)(F)F)c2)on1 [Example 332]", "TEST_VALUE": "0.1 to 1 µM"}

Identify the measured IC50 of C[C@@H](NC(=O)c1cnn(C)c1CNC1CC1)c1ncc(C(=O)Nc2cc(C(F)(F)F)c(Cl)cn2)s1 [Example 133] for V599E Raf (Homo sapiens, UniProt P15056, V600E).
0.1 to 1 µM

----------
Recorded measurements of EC50, one per entry
Test system: phospho-ERK in melanoma derived WM-266-4 cells
Test: Mechanistic cellular assay for Raf kinase activity (phospho-ERK, Bio-Plex)
Format: cell-based
Settings: Homo sapiens, treated 1-2 hr at 37° C., serum free medium, read-out: pERK EC50

{"MOLECULE": "CC(C)Oc1cc(C(F)(F)F)ccc1Nc1ncc(C(C)NC(=O)c2cc3c(cn2)ncn3C)s1 (stereo not drawn)", "TEST_VALUE": "100 to 1000 nM"}
{"MOLECULE": "CC(NC(=O)c1cc2c(cn1)ncn2C(C)C)c1cnc(Nc2ccc(C(F)(F)F)cc2)cn1 (stereo not drawn)", "TEST_VALUE": "100 to 1000 nM"}
{"MOLECULE": "CC(NC(=O)c1cc2c(cn1)ncn2CCNC(=O)OC(C)(C)C)c1cnc(Nc2ccc(C(F)(F)F)cc2)s1 (stereo not drawn)", "TEST_VALUE": "100 to 1000 nM"}
{"MOLECULE": "C[C@@H](NC(=O)c1cscn1)c1ncc(C(=O)Nc2cc(C(F)(F)F)c(Cl)cn2)s1", "TEST_VALUE": "1000 to 10000 nM"}

So what's the measured EC50 for this one? CCc1[nH]ncc1C(=O)N[C@H](C)c1ncc(C(=O)Nc2cc(C(F)(F)F)c(Cl)cn2)s1
100 to 1000 nM

Same question, CCN1CC(n2cnc3cnc(C(=O)NC(C)c4cnc(Nc5ccc(Cl)c(C(F)(F)F)c5)cn4)cc32)C1 (stereo not drawn) this time
100 to 1000 nM

What do we get for C[C@@H](NC(=O)c1cnn(C)c1CN1CCCCC1)c1ncc(C(=O)Nc2cc(C(F)(F)F)c(Cl)cn2)s1 ?
100 to 1000 nM

Again, but for C[C@@H](NC(=O)c1cc2c(cn1)ncn2C1CN(CC(=O)O)C1)c1cnc(Nc2ccc(C(F)(F)F)cc2)s1
1000 to 10000 nM

Follow-up entry: CC(NC(=O)c1cc2c(cn1)ncn2C)c1cnc(Nc2cccc(C(C)(C)C(F)(F)F)c2)s1 (stereo not drawn)
≤ 100 nM
